Each recorded value in this set is attributed to patent US7476679B2.

Provide the recorded Kb for the entries that follow.
Molecular target: human mu opioid receptor (Homo sapiens)
Construct: expressed in transfected cells; host or cells: CHO cells (membrane homogenates)
Sequence (P35372 whole entry): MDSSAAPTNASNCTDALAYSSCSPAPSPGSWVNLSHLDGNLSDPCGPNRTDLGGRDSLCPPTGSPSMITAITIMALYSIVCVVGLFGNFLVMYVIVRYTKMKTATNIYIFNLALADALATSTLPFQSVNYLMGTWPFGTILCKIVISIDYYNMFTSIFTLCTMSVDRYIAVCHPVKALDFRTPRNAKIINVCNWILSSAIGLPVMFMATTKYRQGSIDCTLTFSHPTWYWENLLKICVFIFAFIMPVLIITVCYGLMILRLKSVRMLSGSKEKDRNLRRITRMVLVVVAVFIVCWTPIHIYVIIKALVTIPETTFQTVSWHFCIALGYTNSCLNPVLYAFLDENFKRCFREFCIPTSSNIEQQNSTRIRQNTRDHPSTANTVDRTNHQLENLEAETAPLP
Test: Inhibition of agonist (DAMGO) stimulated [35S]GTPγS binding, apparent affinity (Ke)
Assay type: biochemical
Conditions: cloned human μ receptor, CHO cell membrane homogenates, agonist DAMGO, 10 μM GDP, mean ± SE; read-out: μ, DAMGO Ke
// units = nM; emit number, no label

Given CC12CCC(NC(=O)CCN3CCc4ccccc4C3)CC1(c1cccc(O)c1)CCN(CCCc1ccccc1)C2 (stereo not shown) , state its recorded Kb.
9.82

Give its Kb value. Item: CC12CCC(NC(=O)CCN3CCCCC3)CC1(c1cccc(O)c1)CCN(CCCc1ccccc1)C2 (stereo not shown)
41.7

Look up Kb: CC12CCCCC1(c1cccc(O)c1)CCN(CCc1ccccc1)C2 (stereo not shown)
0.84

I have this compound here, CC12CCC(NC(=O)C3(c4ccccc4)CCCC3)CC1(c1cccc(O)c1)CCN(CCCc1ccccc1)C2 (stereo not shown) , and I need its recorded Kb.
1.46

* * *

Molecular target: human kappa opioid receptor (Homo sapiens, UniProt P41145)
Construct: expressed in transfected cells; host or cells: CHO cells (membrane homogenates)
Sequence (P41145 whole entry): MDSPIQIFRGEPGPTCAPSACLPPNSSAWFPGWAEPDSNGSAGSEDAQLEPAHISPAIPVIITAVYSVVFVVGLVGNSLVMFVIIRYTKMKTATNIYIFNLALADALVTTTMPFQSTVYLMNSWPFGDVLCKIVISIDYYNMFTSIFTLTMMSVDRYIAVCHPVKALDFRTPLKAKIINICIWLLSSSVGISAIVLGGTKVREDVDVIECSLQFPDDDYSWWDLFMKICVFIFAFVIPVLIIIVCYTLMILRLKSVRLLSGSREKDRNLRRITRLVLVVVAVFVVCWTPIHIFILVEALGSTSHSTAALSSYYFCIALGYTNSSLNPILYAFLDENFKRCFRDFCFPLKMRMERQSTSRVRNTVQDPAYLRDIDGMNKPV
Experiment: Inhibition of agonist (U69,593) stimulated [35S]GTPγS binding, apparent affinity (Ke)
Type: biochemical
Conditions: ratio of Ke values, μ over κ
Tick Satisfied if μ/κ is 0.8 or greater. Tick Not satisfied if μ/κ is less than 0.8.

In plain terms: is recorded μ/κ at least 0.8 for CC12CCCCC1(c1cccc(O)c1)CCN(CCc1ccccc1)C2 (stereo not shown) ?
Not satisfied

Please tell me: is the compound CN1CCC2(c3cccc(O)c3)CCCCC2(C)C1 (stereo not shown) at or over 0.8 in terms of μ/κ?
Satisfied

Determine whether measured μ/κ meets or exceeds 0.8 for CC12CCC(NC(=O)CCN3CCc4ccccc4C3)CC1(c1cccc(O)c1)CCN(CCCc1ccccc1)C2 (stereo not shown)
Satisfied

Say whether CC12CCC(NC(=O)CCN3CCCCC3)CC1(c1cccc(O)c1)CCN(CCCc1ccccc1)C2 (stereo not shown) shows μ/κ of 0.8 or more.
Satisfied

Hello, I need to know if CC12CCC(NC(=O)c3cc4ccccc4s3)CC1(c1cccc(O)c1)CCN(CCCc1ccccc1)C2 (stereo not shown) has measured μ/κ not below 0.8. Thanks!
Satisfied

* * *

Target: human kappa opioid receptor (Homo sapiens)
Construct: expressed in transfected cells; host or cells: CHO cells (membrane homogenates)
Assay: Inhibition of agonist (U69,593) stimulated [35S]GTPγS binding, apparent affinity (Ke)
Format: biochemical
Settings: cloned human κ receptor, CHO cell membrane homogenates, agonist U69,593, 10 μM GDP, mean ± SE; read-out: κ, U69,593 Ke
Exercise: state measured Kb for each of the compounds provided.
Kindly answer with a numeric value in nM, unit omitted.

Query (compound): CC12CCCCC1(c1cccc(O)c1)CCN(CCc1ccccc1)C2 (stereo not shown) [6b] ; field requested: Kb
2.84

Query (compound): CC12CCC(NC(=O)CCN3CCc4ccccc4C3)CC1(c1cccc(O)c1)CCN(CCCc1ccccc1)C2 (stereo not shown) [6e] ; field requested: Kb
0.22

Which value of Kb has been reported for CC12CCC(NC(=O)CCN3CCCCC3)CC1(c1cccc(O)c1)CCN(CCCc1ccccc1)C2 (stereo not shown) [6d] in the records?
0.27

Which value of Kb has been reported for CC12CCC(NC(=O)C3(c4ccccc4)CCCC3)CC1(c1cccc(O)c1)CCN(CCCc1ccccc1)C2 (stereo not shown) [6f] in the records?
1.93
